Experiment: protein stability index of a GFP-peptide fusion (GPS, HEK-293T) (PSI 1-6); higher = more stable;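 further: 24-mer peptide tiles fused after GFP, lentivirally expressed, FACS-sorted into six equal bins by GFP/DsRed ratio, decoded by Illumina sequencing, PSI is the read-weighted mean bin number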
Conditions: treatment: MLN4924 1 uM, 8 h; c terminus: a fixed tail appended

sequenceData | protein stability index
VHGIRSVGTAAVNMCLVATGGADA [IMPA1] | 2.93
IVDFLTHHAQTSKTERINALELLG [FEM1C] | 2.18
GLETLFSKAQELGGAGREDPGLWS [ZSWIM9] | 3.39
ALCMLAQSSPSFAEKCLDFLVDMF [INTS4] | 2.35
PETAHPNLVLSEDRKSVKFVETRL [TRIM39] | 4.15
HGDARATGREMHGKNWSKLCKDCQ [TPPP] | 4.53
QRQQLPVTFGNKQKVLGKALSLIR [BTBD1] | 2.2
YVKFDAVSGDYYPIIYFNDYWNLQ [CLPTM1] | 2.8
KQLIYRVRRTDDTPVVLVGNKSDL [RIT1] | 3.23
DCAGSPQKPLCASDGRTFLSRCEF [SMOC2] | 3.27
PLAQNERCLHMFLQDEIIDKSYTP [SNX3] | 3.39
CKKGDPKHGKRKRGRPRKLSKEYW [ELF3] | 3.85
ESIDFDQGELADQDVDPVHNLIEQ [FBXO33] | 5.22
FVTGNCLEISPDCSQYDRVYCGAG [PCMTD2] | 2.33
GSDAEQSTSGQPYPTSDQEGDPGS [LCOR] | 5.59
SENVVNRMKEPSSPPPAPTSSTFG [CHCHD6] | 5.3
ENSICVGFKRDYYLIRVDGKGSIK [VPS39] | 2.35
FLVTMANIGINGNHSLETCETTLF [PTGFR] | 2.5
PRCPGSVNEKLPQREGTGKTVSLQ [SMOC2] | 5.03
LRQLGCKDGKNWNSNQATDIMETS [SPOPL] | 4.28
AVLTTHHHWDHARGNPELARLRPG [HAGHL] | 3.4
PQAFPMSRLWDSRLRHYLGSRYDA [DNAAF3] | 2.51
GTTYLPGIVGLNNIKANDYANAVL [USP39] | 2.44
SSVYKQQWFAMLRAEQDSEVGPQE [GMCL1] | 4.16
CSVRPDASVSSHRFFGPNAEISQP [TCF25] | 3.73
CGRYINGHMLQHHGNSGHPLVLSY [HDAC6] | 2.65
KVTISNRLVSSPCCIVTSTYGWTA [HSP90AB1] | 2.51
EGSFNGSEKETMQFLNDRLASYLE [KRT33B] | 3.34
RWREGTKDSHDPLPSWAELLRPKY [PBXIP1] | 2.96
REHVCRKDQRNPPSLGRVLPDPRE [RBMY1A1] | 4.8
DKLDGNELDLSLSDLNEVPVKELA [LRRC59] | 5.34
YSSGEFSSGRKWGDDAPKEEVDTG [INTS4] | 3.97
INSDTGVLYALRSFDYEQFHELQM [PCDHGA10] | 2.35
VELPIVDSLHPRPPYLPLAVPEDL [FUT8] | 4.54
QGGELVVAYPYDLVRSPWKTQEHT [CPXM2] | 2.15
CIELYFDEKYSIEPSWECKFDHIE [NETO1] | 2.24
DAPLHSVGYTTLVGNNHESWGWDL [SPSB1] | 2.85
SPEPPSLYGALNPQYEFKEAAGSF [IRX6] | 3.6
MIAFFFIIIYLGPMVLMIIVMCVQ [CDS2] | 3.12
GHLFPPPTPIFAGGANDRWVRSVS [WSB1] | 2.39
EEMEEEEEEEEEEDEDDDSADMDE [FBXO3] | 5.59
PANTQINDIRIFLEKVLEENAQKK [VPS39] | 3.61
KQKGSEENLDEAREQKEKSPPDQP [ADD1] | 5.78
KNLFRLEMDMVVFRPEMKKHSWCL [N4BP2L1] | 2.4
ENAELESRIQEWYEFQIPYICPDY [KRT36] | 2.9
LIALLTWGYIRYSGQYRELGGAID [ATL3] | 3.52
GAKMTERGSVARPTQGPETPRSPE [PXN] | 5.38
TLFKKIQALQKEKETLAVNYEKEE [CCDC6] | 3.35
SKDNMRTRIMIGLTLVFFVQITGQ [SLC2A12] | 3.4
LQMEVCRLKKEEEDRIVTQNRVFA [CEP70] | 4.01
LVSPSNNSKEDAFSGTDWMLEKMD [ATF4] | 4.64
GIEHAQCVPPSEFSEPSFITESYQ [ETS1] | 4.15
ESSAKSKINVNEIFYDLVRQINRK [RAP1B] | 1.96
